- System: IGROV1 ovarian
- Assay overview: NCI-60 one-dose screen, 48 h
- Details: 10 µM unless noted
Compounds without any hit were thinned out: in the full panel of roughly 83,000, 20% have a hit. Calls of active or inactive are those of the source. Rule for the calls: active = growth percent below 10; inactive = the rest.
Possible outcomes: 1 = active, -1 = inactive

• CCOC(=O)C1=C(C)c2ccc(OC)c(OC)c2C1 = -1
• O=C1NC(=O)C(=Cc2cn(Cc3cn(Cc4ccc(Cl)cc4Cl)nn3)c3ccccc23)C(=O)N1 = -1
• CN1C(=O)N(C)C2C1NN=c1s/c(=C\c3c[nH]c4ccccc34)c(=O)n12 (stereo not drawn) = -1
• COC(=O)C1(C)COP(=O)(Nc2ccc(OC)cc2)OC1 (stereo not drawn) = -1
• COc1ccc(/C=C/C(=O)c2c(C)nc3ccccc3c2/C=C/c2ccccc2)c(OC)c1 = -1
• CCOC(=O)c1c2c(c(C)n1Cc1ccc(OC)cc1)-c1oncc1CC2 = -1
• COc1ccc(C2=Nn3c(NN)nnc3SC2)cc1 = -1
• Cc1c(-c2noc(-c3ccc([N+](=O)[O-])cc3)n2)no[n+]1[O-] = -1
• CN1C(=O)N(C)C2C1NN=c1s/c(=C\c3ccc(Cl)cc3Cl)c(=O)n12 (stereo not drawn) = -1
• O=C(Nc1ccc(Br)cc1F)c1cc(Cl)ccc1O = -1
• Cc1cccc(NC(=O)c2sc3nc4c(cc3c2N)CCCC4)c1C = -1
• COc1ccc2[nH]c(O)c(N=NC(=O)c3oc4ccccc4c3C)c2c1 = 1
• O=C(Nc1ccccc1O)c1ccc(-c2ccc(Cl)cc2Cl)o1 = -1
